half-life values by entry
test: Half life in mouse at 5 mg/kg, po; type: ADME, organism-based; conditions: in vivo
The figure you give is taken to be in h; do not add the unit.

smiles_code=FC(F)(F)n1cc(-c2n[nH]c3cc(Cl)c(N[C@@H]4CCN(C5COC5)C4)cc23)cn1 val=2.6
smiles_code=COc1ccc(-n2cc(-c3n[nH]c4cc(Cl)c(N[C@H]5CNCC56CC6)cc34)cn2)cc1 val=2.16
smiles_code=COc1ccc(-n2cc(-c3n[nH]c4cc(Cl)c(N[C@@H]5CCN(C6COC6)C5)cc34)cn2)cc1 val=2.46

Now for the compound whose half-life we want.
Ask: // query half-life value for entry Cn1cc(-c2n[nH]c3cc(Cl)c(N[C@@H]4CCN(C5COC5)C4)cc23)cn1
Reply: 2

----------
target: Tyrosine-protein kinase receptor UFO (Homo sapiens); assay: Inhibition of Axl (unknown origin) using 5'FAM labeled KKKKEEIYFFF-NH2 peptide as substrate incubated for 1.5 hrs
pIC50: −log10 of the molar value.
Class Met: pIC50 at least 5. Class Not met: pIC50 below 5.

compound="CNC1CCN(c2ccc3[nH]nc(-c4cnn(C)c4)c3c2)C1 (stereo unspecified)" assigned_class="Not met"
compound=Cn1cc(-c2n[nH]c3cc(Cl)c(N[C@@H]4CCNC4)cc23)cn1 assigned_class="Not met"
compound=FC(F)(F)n1cc(-c2n[nH]c3cc(Cl)c(N[C@@H]4CCN(C5COC5)C4)cc23)cn1 assigned_class="Not met"

Ask: Threshold query (pIC50 >= 5) on Cn1cc(-c2n[nH]c3ccc(N[C@@H]4CCNC4)cc23)cn1
Reply: Not met

Ask: Kindly determine if pIC50 recorded for Cn1cc(-c2n[nH]c3ccc(Br)cc23)cn1 is above or exactly 5.
Reply: Met

----------
Measured IC50 of individual entries
Molecular target: UniProt:P30530
Sequence (P30530 whole entry): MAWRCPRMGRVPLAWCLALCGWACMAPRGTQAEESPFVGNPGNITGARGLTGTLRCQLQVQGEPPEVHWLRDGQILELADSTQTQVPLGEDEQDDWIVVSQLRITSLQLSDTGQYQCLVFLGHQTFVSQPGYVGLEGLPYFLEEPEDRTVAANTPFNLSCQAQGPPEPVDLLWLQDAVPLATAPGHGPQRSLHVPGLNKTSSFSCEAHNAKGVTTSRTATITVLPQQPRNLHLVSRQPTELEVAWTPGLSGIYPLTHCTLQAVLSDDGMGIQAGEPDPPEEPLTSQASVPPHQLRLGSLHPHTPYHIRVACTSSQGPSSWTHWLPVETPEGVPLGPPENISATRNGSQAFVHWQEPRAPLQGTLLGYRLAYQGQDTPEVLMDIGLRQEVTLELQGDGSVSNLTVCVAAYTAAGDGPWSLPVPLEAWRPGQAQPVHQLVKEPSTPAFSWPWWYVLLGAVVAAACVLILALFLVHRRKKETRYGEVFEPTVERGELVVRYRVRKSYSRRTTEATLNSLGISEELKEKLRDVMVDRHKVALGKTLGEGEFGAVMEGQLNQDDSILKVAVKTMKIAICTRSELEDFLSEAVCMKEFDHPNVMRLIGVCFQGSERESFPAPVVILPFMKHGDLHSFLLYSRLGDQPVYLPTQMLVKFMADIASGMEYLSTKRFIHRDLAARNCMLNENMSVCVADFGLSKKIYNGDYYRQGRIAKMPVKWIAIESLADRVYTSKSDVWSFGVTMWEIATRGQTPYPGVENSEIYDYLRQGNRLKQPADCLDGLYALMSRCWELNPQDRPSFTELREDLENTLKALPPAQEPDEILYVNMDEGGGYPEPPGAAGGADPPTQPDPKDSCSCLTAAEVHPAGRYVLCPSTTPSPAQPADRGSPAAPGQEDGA
Experiment: Inhibition of Axl (unknown origin) using 5'FAM labeled KKKKEEIYFFF-NH2 peptide as substrate incubated for 1.5 hrs

compound=CSc1cc(-c2ccc(F)cc2)n[nH]1 recorded_endpoint=IC50 val="331 µM"

Ask: Bench note: what IC50 did Brc1cccc2[nH]ncc12 show?
Reply: 178 µM

Ask: If you can, please state the reported IC50 value of Cn1cc(-c2n[nH]c3cc(N)ccc23)cn1 .
Reply: 28.8 µM

Ask: Could you tell me which IC50 is on file for Cn1cc(-c2n[nH]c3cc(Cl)c(N[C@@H]4CCN(C5COC5)C4)cc23)cn1 ?
Reply: 320 µM

Ask: Query: IC50; subject: Cn1cc(-c2n[nH]c3ccc(-c4ccccc4)cc23)cn1
Reply: 0.62 µM

Ask: GET /values?readout=IC50&item= O=C(O)c1ccc2cn[nH]c2c1
Reply: > 770 µM

Ask: Any idea what its IC50 is? The compound is Cn1cc(-c2n[nH]c3ccc(NC4CCNC4)cc23)cn1 (configuration not stated)
Reply: 132 µM

Ask: Which value of IC50 has been reported for COc1ccc(-n2cc(-c3n[nH]c4cc(Cl)c(N[C@@H]5CCNC5)cc34)cn2)cc1 in the records?
Reply: 0.3 µM

----------
assay: Tmax in mouse at 5 mg/kg, po; format: ADME, organism-based; details: in vivo
recorded.endpoint: Tmax (min)
Give just the number in min; leave the unit off.

Past entries and their recorded results:
smiles_code=FC(F)(F)n1cc(-c2n[nH]c3cc(Cl)c(N[C@@H]4CCN(C5COC5)C4)cc23)cn1 recorded_endpoint=Tmax val=10.2
smiles_code=COc1ccc(-n2cc(-c3n[nH]c4cc(Cl)c(N[C@@H]5CCN(C6COC6)C5)cc34)cn2)cc1 recorded_endpoint=Tmax val=15
smiles_code=COc1ccc(-n2cc(-c3n[nH]c4cc(Cl)c(N[C@H]5CNCC56CC6)cc34)cn2)cc1 recorded_endpoint=Tmax val=15

Let us move to another entry and its Tmax.
Ask: Value lookup for Tmax; key = Cn1cc(-c2n[nH]c3cc(Cl)c(N[C@@H]4CCN(C5COC5)C4)cc23)cn1
Reply: 10.2

----------
Each entry below carries its reported pIC50.
Target: Tyrosine-protein kinase receptor UFO (Homo sapiens)
Sequence (P30530 whole entry): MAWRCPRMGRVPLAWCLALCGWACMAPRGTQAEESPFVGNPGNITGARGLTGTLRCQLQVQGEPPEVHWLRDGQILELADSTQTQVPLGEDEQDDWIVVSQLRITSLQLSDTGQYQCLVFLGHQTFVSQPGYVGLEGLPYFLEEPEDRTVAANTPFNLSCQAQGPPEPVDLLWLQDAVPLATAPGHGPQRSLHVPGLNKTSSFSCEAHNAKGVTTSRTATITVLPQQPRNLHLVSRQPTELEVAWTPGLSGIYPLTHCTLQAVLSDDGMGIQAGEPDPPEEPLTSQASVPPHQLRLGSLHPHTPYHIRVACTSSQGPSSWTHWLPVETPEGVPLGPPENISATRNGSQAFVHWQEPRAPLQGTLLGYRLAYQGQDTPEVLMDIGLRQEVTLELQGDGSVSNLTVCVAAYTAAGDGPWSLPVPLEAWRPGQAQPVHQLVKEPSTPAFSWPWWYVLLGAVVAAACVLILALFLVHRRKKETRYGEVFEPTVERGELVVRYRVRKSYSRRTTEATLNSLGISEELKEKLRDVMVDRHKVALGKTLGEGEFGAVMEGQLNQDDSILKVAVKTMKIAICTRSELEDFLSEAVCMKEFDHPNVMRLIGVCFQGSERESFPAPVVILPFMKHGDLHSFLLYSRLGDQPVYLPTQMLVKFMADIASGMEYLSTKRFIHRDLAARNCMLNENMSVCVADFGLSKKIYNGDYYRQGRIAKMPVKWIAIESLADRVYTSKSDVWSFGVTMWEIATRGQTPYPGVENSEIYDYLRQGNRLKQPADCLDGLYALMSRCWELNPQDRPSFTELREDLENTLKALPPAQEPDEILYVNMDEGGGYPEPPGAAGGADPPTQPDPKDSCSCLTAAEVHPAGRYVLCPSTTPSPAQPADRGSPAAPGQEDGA
Assay: Inhibition of Axl (unknown origin) using 5'FAM labeled KKKKEEIYFFF-NH2 peptide as substrate incubated for 1.5 hrs
Recall that pIC50 is obtained by taking minus log10 of the concentration measured in molar.

Below: 2 molecules and their reported pIC50.
smiles_code=COc1ccc(-n2cc(-c3n[nH]c4cc(Cl)c(N[C@@H]5CCN(C6COC6)C5)cc34)cn2)cc1 val=4.38
smiles_code=c1cncc(-c2csc(-c3cccnc3)n2)c1 val=3.52

Ask: Item under review: Nc1ccc2c(-c3cccnc3)n[nH]c2c1 . Reported pIC50?
Reply: 4.55
